Assay: yeast display, Sf9 membrane polyspecificity reagent, FACS + sequencing; frameworks hold sequencing errors

| Sequence Data | polyreactivity (PSR sort gate) |
| --- | --- |
| QVQLGESGGGLVQAGGSLRLSCAASGRTITRNAMGWYRQAPGKERELVAAISYSGGSTYYADSVKGRFTISRDNAKNTVYLQMNSLKPEDTAVYYFNAATSRRSIRYDYWGQGTQVTVSS | high polyreactivity |
| QVQLVESGGGLVQAGGSLRLSCAASGYIFKRYAIGWNRQAPGKERELVAAISGNGGSTYYADSVKGRFTISRDNAKNTVYFQMNSLKPEDTAVYYCNKSGYYSPTSKGEYWGQGTQVTVSS | low polyreactivity |
| QVQLVESGGGLVQAGGSLSLSCAASGSIFYYYAMGWYRKAPGKERELVASIRSGGSTNYADSVKGRFTISRDNAKNTVYLQKNSLKPEDTAVYYCAARKFYASSLRYGYWGQCTQVTVSS | high polyreactivity |
| QVQLVESGGGLDQAGGSHRLSCAASGRIFYIYTMGWYRQPPGKEREFVAGINWNGGSTYYADSVKGRFTISRDNAKNTVYLQMNSLKPEVTAVYYCNADQYWDRYYYWGQGTQVTVSS | low polyreactivity |
| QVQLVESGGGLVQAGGSLRLSCAASGRTFAQYGMGWYRQAPGKERELVAAISRSGGRTYYADSVKGRFTISRDNAKNTVYLQMNSLKPEDTAVYYCAARAYLISSSTPFWTGYDSWGHGTQVTVSS | low polyreactivity |
| QVQLVESGGGLVQAGGSLRLSCAASGRTFHGYAMGWYRQAPGKERELVARINWSDGRTYYADSVKGRFTISRDNAKNTVYLQMNSLKPEEPAVYYCAATRYYYYWYVYEDRGDFWGQGTQVTVSS | low polyreactivity |
| QVQLVESGGGLDQAGGSLPLTCAASGSIFDPNAMGWYRQAPGKERELVANNTIGGRTNYADSVKGRFTISRDNPKNTVYLQMNSLKPDDTAVFYCAKDSPYTSVTVLAPIIYESWGKGTQVTVSS | low polyreactivity |
| QVQLVESGGGLVQAGGSLRLSCAASGSTFPYYAMGWYRQAPGKERELVAAITSSTGRTYYADSVKGRFTISRDNAKNTVYFQMNSLKPEDTAVYYCNAEVYSDPYNDHDYWGQGTQVTVSS | low polyreactivity |
| QVQLVESGGGLVQAGGSLRLRCAASGRIFAPYAMGRYRQAPWKERELVAAIDGSGGSTYYADSVKGRFTISRDNAKNTVYLQMNSLKPEDTAVYYCANRGYYRSQRWYGYWGQGTQVTVSS | high polyreactivity |
| QVQLVESGGGLVQAGGSLRLSCAASGTFAFYTMGWYRQAPGKERELVAAISWDGGDTYYADSVKGRFTISRDNAKNTVYLQMNSLKPEDTAVYYCAADYSNSGYGYWGQGTQVTVSS | low polyreactivity |
| QVQLVESGGGLVQAGGSLRLSCAASGNTFYFYAMGWYRQAPGKERELVAAIRWSGSRTYADSVKGRFTISRDNAKNTVYLQMNSLKPEDTAVYYCNADSIWGYDYWGQGTQVTVSS | high polyreactivity |
